System: S. mansoni adult worms
Assay: Motility assay on adult parasites (pixel displacement, relative to DMSO control)
Assay type: cell-based, Schistosoma mansoni
Conditions: secondary screen, 10 μM, D5, Male adult worms
# Fractional motility >= 0.04 gives Y, anything below gives N

Is the recorded value of Fractional motility equal to or greater than 0.04 for this compound? O=C1Cc2cc(CCN3CCN(c4nsc5ccccc45)CC3)c(Cl)cc2N1 Y

Threshold query (Fractional motility >= 0.04) on C=CC[C@]1(O)CC[C@H]2[C@@H]3CCC4=CC(=O)CCC4=C3C=C[C@@]21C Y

Entry O=[N+]([O-])c1ccc2c(c1)S(=O)(=O)C=C2 : is its Fractional motility no less than 0.04? Y

Hello, I need to know if O=C(O[C@H]1CN2CCC1CC2)N1CCc2ccccc2[C@@H]1c1ccccc1 has measured Fractional motility not below 0.04. Thanks! Y

Could you tell me if the measured Fractional motility of CN(C)CCCN1c2ccccc2Sc2ccc(Cl)cc21 reaches 0.04 or more? Y

Determine whether this compound has Fractional motility no lower than 0.04: CCCCCCCCCCCCCCCCn1cc[n+](Cc2ccccc2)c1C.[I-] N

Item c1cc(-c2cnn3cc(-c4ccc(N5CCNCC5)cc4)cnc23)c2cccnc2c1 with Fractional motility of 0.04 or above? N

Has CN(C)CCC=C1c2ccccc2CCc2ccccc21 a recorded Fractional motility greater than or equal to 0.04? N

Textbook exercise: given the entry O=C(Nc1ccccc1-c1cn2c(CN3CCNCC3)csc2n1)c1cnc2ccccc2n1 , state whether its Fractional motility is greater than or equal to 0.04. Y

Is the recorded value of Fractional motility equal to or greater than 0.04 for this compound? CN(C)CC/C=C1/c2ccccc2Sc2ccc(Cl)cc21 Y

Threshold query (Fractional motility >= 0.04) on COCCn1c2c([n+](Cc3cnccn3)c1C)C(=O)c1ccccc1C2=O Y

Given CN(C)CCC[C@@]1(c2ccc(F)cc2)OCc2cc(C#N)ccc21 , state whether its Fractional motility is at least 0.04. Y

Check this compound for Fractional motility at or above 0.04: CCCN1C[C@H](CSC)C[C@@H]2c3cccc4[nH]cc(c34)C[C@H]21 [Pergolide] N

Could you tell me if the measured Fractional motility of NC(=O)C(c1ccccc1)(c1ccccc1)[C@@H]1CCN(CCc2ccc3c(c2)CCO3)C1 reaches 0.04 or more? N

Confirm if Fractional motility reported for the compound COC(=O)C1=CCCN(C)C1 is 0.04 or above. N

Check this compound for Fractional motility at or above 0.04: Cc1c(C(=O)NN2CCCCC2)nn(-c2ccc(Cl)cc2Cl)c1-c1ccc(Cl)cc1 N

Could you tell me if the measured Fractional motility of O=C(NC(NC(=S)Nc1ccc(F)c([N+](=O)[O-])c1)C(Cl)(Cl)Cl)C(c1ccccc1)c1ccccc1 (stereo not shown) reaches 0.04 or more? N

Record Cc1ccc(Sc2ccccc2N2CCNCC2)c(C)c1 ; criterion: Fractional motility no lower than 0.04. Met? Y

Does the reported Fractional motility for CCN(CC)CCOc1ccc(C(=C(Cl)c2ccccc2)c2ccccc2)cc1 fall at or above the 0.04 mark? N

---

Could you please report measured Fractional motility for the items listed next?
System: S. mansoni adult worms
Test: Motility assay on adult parasites (pixel displacement, relative to DMSO control)
Format: cell-based, Schistosoma mansoni
Conditions: secondary screen, 10 μM, D1, Male adult worms

Give Fractional motility for the following compound: O=[N+]([O-])c1ccc2c(c1)S(=O)(=O)C=C2 -0.03

Given Cc1ccc(Sc2ccccc2N2CCNCC2)c(C)c1 , respond with its Fractional motility. 2.15

Retrieve Fractional motility measured for COc1cc(N2CCC(N)CC2)ccc1Nc1ncc(Cl)c(-c2c[nH]c3ccccc23)n1 and print it. 0.58

Item N#CSc1cc(SC#N)c(N)nc1N : provide Fractional motility 0.35

Please indicate Fractional motility recorded for CCn1c2ccccc2c2cc(Nc3ccnc(NCCCN4CCOCC4)n3)ccc21 0.85

Query Fractional motility for COC(=O)C1=C(C)NC(C)=C(C(=O)OCCN2CCN(C(c3ccccc3)c3ccccc3)CC2)C1c1cccc([N+](=O)[O-])c1 (stereo not drawn) -0.20

Provide one value: measured Fractional motility of Cc1cccc(C(C)c2cnc[nH]2)c1C (stereo not drawn) 2.75

Look up and state reported Fractional motility for Fc1ccc([C@@H]2CCNC[C@H]2COc2ccc3c(c2)OCO3)cc1 1.07

Specify Fractional motility for Cc1cc(Nc2ncc(Cl)c(Nc3ccccc3S(=O)(=O)C(C)C)n2)c(OC(C)C)cc1C1CCNCC1 and stop. -0.0381

// provenance: paper PMC7284125
